System: DMS 114 tumor spheroids, viability % test/control
Test: Anticancer human tumor DMS 114 cell line growth inhibition;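 also: spheroids exposed to compounds for 7 days before read-out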;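 as to viability, T/C: luminescence used as a proxy for viable cells; 100% = DMSO vehicle control viability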
Details: second compound 30 pM; first compound 0.949 µM; stronger effect = lower value; spheroids with HUVEC and MSC
READOUT: viability, T/C (%)
Number in %, nothing else.

Ask: What value of viability, T/C has been reported for the following compound? O=C(c1cc(Cc2n[nH]c(=O)c3ccccc23)ccc1F)N1CCN(C(=O)C2CC2)CC1 + COc1cc2c(cc1O)CCNC21CSC2c3c(OC(C)=O)c(C)c4c(c3C(COC1=O)N1C(O)C3Cc5cc(C)c(OC)c(O)c5C(C21)N3C)OCO4
Reply: 97.1

Ask: What value of viability, T/C has been reported for the following compound? CNCc1ccc(-c2cc(-c3nc(-c4ccc(S(=O)(=O)C(C)C)cc4)cnc3N)on2)cc1 + COc1cc2c(cc1O)CCNC21CSC2c3c(OC(C)=O)c(C)c4c(c3C(COC1=O)N1C(O)C3Cc5cc(C)c(OC)c(O)c5C(C21)N3C)OCO4
Reply: 2.84

Ask: What value of viability, T/C has been reported for the following compound? Cn1ncnc1[C@H]1c2n[nH]c(=O)c3cc(F)cc(c23)N[C@@H]1c1ccc(F)cc1 + COc1cc2c(cc1O)CCNC21CSC2c3c(OC(C)=O)c(C)c4c(c3C(COC1=O)N1C(O)C3Cc5cc(C)c(OC)c(O)c5C(C21)N3C)OCO4
Reply: 29.9

Ask: What value of viability, T/C has been reported for the following compound? Cc1sc2c(c1C)C(c1ccc(Cl)cc1)=NC(CC(=O)Nc1ccc(O)cc1)c1nnc(C)n1-2 (centres undefined) + COc1cc2c(cc1O)CCNC21CSC2c3c(OC(C)=O)c(C)c4c(c3C(COC1=O)N1C(O)C3Cc5cc(C)c(OC)c(O)c5C(C21)N3C)OCO4
Reply: 5.12

====

Tested on: DMS 114 tumor spheroids, viability % test/control
Test: Anticancer human tumor DMS 114 cell line growth inhibition;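 also: spheroids exposed to compounds for 7 days before read-out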
Settings: curve of first compound; second compound 0.3 µM; spheroids with HUVEC and MSC
pIC50: −log10 of the molar value.
READOUT: pIC50

Ask: What value of pIC50 has been reported for the following molecule? Cn1ncnc1[C@H]1c2n[nH]c(=O)c3cc(F)cc(c23)N[C@@H]1c1ccc(F)cc1 + CC[C@@]1(O)C(=O)OCc2c1cc1n(c2=O)Cc2cc3c(CN(C)C)c(O)ccc3nc2-1
Reply: > 8.02

Ask: What value of pIC50 has been reported for the following molecule? Cc1sc2c(c1C)C(c1ccc(Cl)cc1)=NC(CC(=O)Nc1ccc(O)cc1)c1nnc(C)n1-2 (stereo not given) + CC[C@@]1(O)C(=O)OCc2c1cc1n(c2=O)Cc2cc3c(CN(C)C)c(O)ccc3nc2-1
Reply: > 8.02

Ask: What value of pIC50 has been reported for the following molecule? CC(C)n1c(=O)n(C)c2cnc3cc(F)c(-c4ccc(OCCCN5CCCCC5)nc4)cc3c21 + CC[C@@]1(O)C(=O)OCc2c1cc1n(c2=O)Cc2cc3c(CN(C)C)c(O)ccc3nc2-1
Reply: > 7.50

Ask: What value of pIC50 has been reported for the following molecule? COc1ccc([C@@H](O)c2cc(-c3ncnc4cc(N5CCOCC5)ccc34)c(F)cc2Cl)nn1 + CC[C@@]1(O)C(=O)OCc2c1cc1n(c2=O)Cc2cc3c(CN(C)C)c(O)ccc3nc2-1
Reply: > 7.50

Ask: What value of pIC50 has been reported for the following molecule? CC1COCCN1c1cc(-c2ccnn2C)c2ccnc(-c3ccn[nH]3)c2n1 (stereo not given) + CC[C@@]1(O)C(=O)OCc2c1cc1n(c2=O)Cc2cc3c(CN(C)C)c(O)ccc3nc2-1
Reply: > 7.50

====

Tested on: DMS 114 tumor spheroids, viability % test/control
Test: Anticancer human tumor DMS 114 cell line growth inhibition;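 also: spheroids exposed to compounds for 7 days before read-out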;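 as to viability, T/C: luminescence used as a proxy for viable cells; 100% = DMSO vehicle control viability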
Settings: second compound 0.0003 µM; first compound 0.1 µM; stronger effect = lower value; spheroids with HUVEC and MSC
Give viability, T/C for every item shown.
Number in %, nothing else.

Ask: What value of viability, T/C has been reported for the following compound? [2H]c1nc(C)nc([2H])c1-c1cc(NC[C@@H](C)c2cccc3c(C(=O)NC)ccnc23)ncn1 + COc1cc2c(cc1O)CCNC21CSC2c3c(OC(C)=O)c(C)c4c(c3C(COC1=O)N1C(O)C3Cc5cc(C)c(OC)c(O)c5C(C21)N3C)OCO4
Reply: 38.9

Ask: What value of viability, T/C has been reported for the following compound? CC1COCCN1c1cc(-c2ccnn2C)c2ccnc(-c3ccn[nH]3)c2n1 (stereo unspecified) + COc1cc2c(cc1O)CCNC21CSC2c3c(OC(C)=O)c(C)c4c(c3C(COC1=O)N1C(O)C3Cc5cc(C)c(OC)c(O)c5C(C21)N3C)OCO4
Reply: 7.98

Ask: What value of viability, T/C has been reported for the following compound? COc1ccc([C@@H](O)c2cc(-c3ncnc4cc(N5CCOCC5)ccc34)c(F)cc2Cl)nn1 + COc1cc2c(cc1O)CCNC21CSC2c3c(OC(C)=O)c(C)c4c(c3C(COC1=O)N1C(O)C3Cc5cc(C)c(OC)c(O)c5C(C21)N3C)OCO4
Reply: 37.6

Ask: What value of viability, T/C has been reported for the following compound? COc1cc(C)[nH]c(=O)c1CN1CCc2c(Cl)cc(C(OC)C3COC3)c(Cl)c2C1=O (stereo unspecified) + COc1cc2c(cc1O)CCNC21CSC2c3c(OC(C)=O)c(C)c4c(c3C(COC1=O)N1C(O)C3Cc5cc(C)c(OC)c(O)c5C(C21)N3C)OCO4
Reply: 43.3

Ask: What value of viability, T/C has been reported for the following compound? Cc1cc(C)c(CNC(=O)c2cc(-c3ccc(CN4CCOCC4)cc3)cc3c2cnn3C2CCCC2)c(=O)[nH]1 + COc1cc2c(cc1O)CCNC21CSC2c3c(OC(C)=O)c(C)c4c(c3C(COC1=O)N1C(O)C3Cc5cc(C)c(OC)c(O)c5C(C21)N3C)OCO4
Reply: 35.8

Ask: What value of viability, T/C has been reported for the following compound? CC(C)n1c(=O)n(C)c2cnc3cc(F)c(-c4ccc(OCCCN5CCCCC5)nc4)cc3c21 + COc1cc2c(cc1O)CCNC21CSC2c3c(OC(C)=O)c(C)c4c(c3C(COC1=O)N1C(O)C3Cc5cc(C)c(OC)c(O)c5C(C21)N3C)OCO4
Reply: 23.5

====

Tested on: DMS 114 tumor spheroids, viability % test/control
Assay: Anticancer human tumor DMS 114 cell line growth inhibition; active = viability on the fitted dose curve at most 10% of control; inactive = the rest;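 also: spheroids exposed to compounds for 7 days before read-out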
Conditions: second compound 0.03 µM; first compound 0.3 µM; spheroids with HUVEC and MSC
A correct response names exactly one class from 1 (active), -1 (inactive)

Ask: // outcome(item) with item = Cn1ncnc1[C@H]1c2n[nH]c(=O)c3cc(F)cc(c23)N[C@@H]1c1ccc(F)cc1 + CC[C@@]1(O)C(=O)OCc2c1cc1n(c2=O)Cc2cc3c(CN(C)C)c(O)ccc3nc2-1
Reply: -1

Ask: // outcome(item) with item = CNCc1ccc(-c2cc(-c3nc(-c4ccc(S(=O)(=O)C(C)C)cc4)cnc3N)on2)cc1 + CC[C@@]1(O)C(=O)OCc2c1cc1n(c2=O)Cc2cc3c(CN(C)C)c(O)ccc3nc2-1
Reply: -1

Ask: // outcome(item) with item = Cc1sc2c(c1C)C(c1ccc(Cl)cc1)=NC(CC(=O)Nc1ccc(O)cc1)c1nnc(C)n1-2 (centres undefined) + CC[C@@]1(O)C(=O)OCc2c1cc1n(c2=O)Cc2cc3c(CN(C)C)c(O)ccc3nc2-1
Reply: 1

Ask: // outcome(item) with item = O=C(c1cc(Cc2n[nH]c(=O)c3ccccc23)ccc1F)N1CCN(C(=O)C2CC2)CC1 + CC[C@@]1(O)C(=O)OCc2c1cc1n(c2=O)Cc2cc3c(CN(C)C)c(O)ccc3nc2-1
Reply: -1

====

Give viability, T/C for every item shown.
Test system: DMS 114 tumor spheroids, viability % test/control
Assay: Anticancer human tumor DMS 114 cell line growth inhibition;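 also: spheroids exposed to compounds for 7 days before read-out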;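 as to viability, T/C: luminescence used as a proxy for viable cells; 100% = DMSO vehicle control viability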
Settings: second compound 100 µM; first compound 3 µM; stronger effect = lower value; spheroids with HUVEC and MSC
Number in %, nothing else.

Ask: What value of viability, T/C has been reported for the following compound? O=C(c1cc(Cc2n[nH]c(=O)c3ccccc23)ccc1F)N1CCN(C(=O)C2CC2)CC1 + Cn1nnc2c(C(N)=O)ncn2c1=O
Reply: 25.4

Ask: What value of viability, T/C has been reported for the following compound? CNCc1ccc(-c2cc(-c3nc(-c4ccc(S(=O)(=O)C(C)C)cc4)cnc3N)on2)cc1 + Cn1nnc2c(C(N)=O)ncn2c1=O
Reply: 0.69

Ask: What value of viability, T/C has been reported for the following compound? Cn1ncnc1[C@H]1c2n[nH]c(=O)c3cc(F)cc(c23)N[C@@H]1c1ccc(F)cc1 + Cn1nnc2c(C(N)=O)ncn2c1=O
Reply: 9.45

Ask: What value of viability, T/C has been reported for the following compound? Cc1sc2c(c1C)C(c1ccc(Cl)cc1)=NC(CC(=O)Nc1ccc(O)cc1)c1nnc(C)n1-2 (centres undefined) + Cn1nnc2c(C(N)=O)ncn2c1=O
Reply: 2.68
